- Method Summary: Human HepG2 cell viability assay in 384 well format
- Type: toxicity, cell-based
- Set-up: dose 125 nL, time 70.5 hour; concentration not given beside the values
- Particulars: HepG2 cells, read-out: Inhibition
Readout: cytotoxicity at 70.5 h (%)

Compound	Reported Result
Cc1ccc(C(=O)N2C[C@@H](NS(C)(=O)=O)[C@H](C(C)C)C2)cc1O	1.71
Cc1ncccc1NS(=O)(=O)Cc1cccc(F)c1	-2.53
O=C(Nc1cccc2ccccc12)N1CCC(N2CCSCC2)CC1	-0.0142
CCc1nccn1CCC(=O)N1CC[C@@H](c2ccc(F)cc2)[C@H](O)C1	-12.3
COc1ccc(OC)c(C(C)NC(=O)Nc2nnc(C)s2)c1 (stereo unspecified)	-5.29
Cn1cc(CN2CCCC(CCCc3ccccn3)(C(N)=O)C2)cn1 (stereo unspecified)	-8.02
CC(=O)N1[C@@H](C(=O)NCC2CC2)C[C@@H]2CN(Cc3ccco3)C[C@@H]21	0.192
CSc1cccc(NC(=O)N2CCC3(CCC(=O)N(C4CC4)C3)CC2)c1	-9.9
CN(C)CCC1CCCCN1Cc1cnn(C)c1C1CC1 (stereo unspecified)	2.52
CC(=O)N1C[C@@H](F)[C@@H](OCc2nc3ccccc3o2)C1	-3.68
CN1CCCN(C(=O)c2cc(-c3cc[nH]n3)n3ccccc23)CC1	-1.54

###

- Method Summary: Human HepG2 cell viability assay in 384 well format
- Format: toxicity, cell-based
- Design: dose 125 nL, time 70.5 hour; concentration not given beside the values
- Particulars: HepG2 cells, read-out: Inhibition
Readout: cytotoxicity at 70.5 h (%)

Molecule	Readout	Reported Result
Cc1noc(Cl)c1CCC(=O)N1CCN(CC(C)(C)O)CC1	cytotoxicity at 70.5 h	7.84
COC(CNC(=O)c1cn(C)nn1)c1ccccc1C (stereo unspecified)	cytotoxicity at 70.5 h	-3.6
N#Cc1cccc(CN2Cc3nccn3CC(COCC3CC3)C2)c1 (stereo unspecified)	cytotoxicity at 70.5 h	8.65
O=C(Cc1ccccn1)N1CCN2C[C@H](Oc3cncnc3)C[C@H]2C1	cytotoxicity at 70.5 h	-7.37
CS(=O)(=O)N1CC2(CCCN2Cc2ccc(Cl)cc2)Cc2ccccc21 (stereo unspecified)	cytotoxicity at 70.5 h	7.7
CCc1ccc(CNC(=O)NC(C)CN2CCOCC2)s1 (stereo unspecified)	cytotoxicity at 70.5 h	6.35

###

- Method Summary: Human HepG2 cell viability assay in 384 well format
- Format: toxicity, cell-based
- Parameters: dose 125 nL, time 70.5 hour; concentration not given beside the values
- Particulars: HepG2 cells, read-out: Inhibition
# cytotoxicity at 70.5 h listing for each entry below
Readout: cytotoxicity at 70.5 h (%)

Compound	Readout	Reported Result
CS(=O)(=O)N1CC[C@H]2O[C@H](C(=O)NCCc3ccncc3)CC[C@H]21	cytotoxicity at 70.5 h	14.6
CCN1C(=O)CC[C@@H]2[C@H]1CCN2C(=O)Cc1cccc(OC)c1	cytotoxicity at 70.5 h	0.943
Cn1ccnc1CN1CCOC(C)(C(=O)N2CCOCC2)C1 (stereo not drawn)	cytotoxicity at 70.5 h	1.29
COc1ccc(C)cc1-n1cnnc1C1CCCN(C)C1 (stereo not drawn)	cytotoxicity at 70.5 h	9.2
COc1ccc(CN(C)[C@@H]2CN(C(=O)c3cncs3)C[C@H]2O)cc1	cytotoxicity at 70.5 h	0.0164
COc1ccc(CN2CCN(CC3CC3)[C@@H]3CS(=O)(=O)C[C@@H]32)cc1C	cytotoxicity at 70.5 h	10.6
Cc1ccc(CSc2ncc(Br)c(C(=O)O)n2)cc1	cytotoxicity at 70.5 h	0.214
O=C(c1cnc(-c2ccccc2)s1)N1CCC2(CC1)OCCO2	cytotoxicity at 70.5 h	7.39
COCc1cnc2n1CCN(C(=O)c1ccc3ccccc3n1)C2C (stereo not drawn)	cytotoxicity at 70.5 h	-8.35
Cc1noc(CCNC(=O)C2CSCN2C(=O)C2CCCC2)n1 (stereo not drawn)	cytotoxicity at 70.5 h	-5.54
Cc1nc(CN2CCC3(CCCN(Cc4ccoc4)C3)C2=O)cs1 (stereo not drawn)	cytotoxicity at 70.5 h	11.4
Cc1cc(=O)n2nc(Oc3ccc(Cl)c(C)c3)sc2n1	cytotoxicity at 70.5 h	-6.83
CCNC(=O)C1CCCN(c2ccc(C#N)cc2C(F)(F)F)C1 (stereo not drawn)	cytotoxicity at 70.5 h	-4.1
COCCn1c(=O)n(Cc2ccccc2C)c2cc(C(=O)O)ccc21	cytotoxicity at 70.5 h	-7.93
Cc1occc1C(=O)N1CCC2(CCCN(Cc3cccs3)C2)C1 (stereo not drawn)	cytotoxicity at 70.5 h	0.121
COCCCN1CC2(CCCCN2C(=O)C2CCCCC2)CC1=O (stereo not drawn)	cytotoxicity at 70.5 h	-3.42
COC(=O)NCCC(=O)NC(c1ccc(Cl)cc1)C(F)(F)F (stereo not drawn)	cytotoxicity at 70.5 h	-8.05
CCC(=O)N1CC[C@H]2[C@H](C[C@@H](Cn3cccn3)N2c2nccs2)C1	cytotoxicity at 70.5 h	8.28
CN(Cc1ccco1)C(=O)CN1CCN(C)c2ccccc2C1	cytotoxicity at 70.5 h	-3
CCN(CCC(F)(F)F)S(=O)(=O)c1cccc(F)c1C#N	cytotoxicity at 70.5 h	-4.04
CN(CCNc1cc(N2CCCC2CO)ncn1)Cc1ccccc1 (stereo not drawn)	cytotoxicity at 70.5 h	-3.62
CCCNC(=O)C(C)Nc1ccn(Cc2ccccn2)n1 (stereo not drawn)	cytotoxicity at 70.5 h	1.09
COc1cccc(C(CO)NC(=O)Cc2cccc(C)c2)c1 (stereo not drawn)	cytotoxicity at 70.5 h	-4.94
